Record: pIC50 reported on butyrylcholinesterase (BuChE) (Homo sapiens, UniProt P06276).
Sequence (P06276 29-602): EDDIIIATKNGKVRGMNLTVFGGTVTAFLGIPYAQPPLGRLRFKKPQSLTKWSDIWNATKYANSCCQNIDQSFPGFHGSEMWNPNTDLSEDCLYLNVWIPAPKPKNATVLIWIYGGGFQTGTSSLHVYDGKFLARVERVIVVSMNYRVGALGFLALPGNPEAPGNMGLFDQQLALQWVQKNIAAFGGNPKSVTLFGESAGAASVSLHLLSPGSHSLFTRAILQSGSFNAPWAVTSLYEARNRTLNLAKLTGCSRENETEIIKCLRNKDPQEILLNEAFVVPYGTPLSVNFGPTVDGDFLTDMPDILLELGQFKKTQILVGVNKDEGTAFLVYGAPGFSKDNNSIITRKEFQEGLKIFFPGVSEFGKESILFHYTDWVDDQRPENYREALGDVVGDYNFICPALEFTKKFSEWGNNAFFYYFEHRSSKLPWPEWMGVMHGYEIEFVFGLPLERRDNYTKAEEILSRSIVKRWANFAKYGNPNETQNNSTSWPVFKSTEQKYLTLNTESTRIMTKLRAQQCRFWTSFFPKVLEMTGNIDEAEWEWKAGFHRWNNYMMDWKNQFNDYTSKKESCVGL
pIC50: −log10 of the molar value.
VALUE_TYPE: pIC50

compound="CC(=NN=Cc1ccc(Cl)cc1)c1ccc(OCc2ccc(Br)cc2)cc1 [Compound 2d]" recorded_number=3.79
compound="CC(=NN=Cc1cccc2ccccc12)c1ccc(OCc2ccc(Br)cc2)cc1 [Compound 2h]" recorded_number=3.78
compound="CC(=NN=Cc1ccc(C=O)cc1)c1ccc(OCc2ccc(Br)cc2)cc1 [Compound 2i]" recorded_number=3.75
compound="CC(=NN=Cc1ccc(C)o1)c1ccc(OCc2ccc(Br)cc2)cc1 [Compound 2e]" recorded_number=3.87
compound="CC(=NN=Cc1ccc(C)cc1)c1ccc(OCc2ccc(Br)cc2)cc1 [Compound 2g]" recorded_number=4.01
compound="COc1ccc(C=NN=C(C)c2ccc(OCc3ccc(Br)cc3)cc2)cc1 [Compound 2f]" recorded_number=4.12
compound="CCN(CC)c1ccc(C=NN=C(C)c2ccc(OCc3ccc(Br)cc3)cc2)cc1 [Compound 2a]" recorded_number=4.11
compound="COc1cccc(C=NN=C(C)c2ccc(OCc3ccc(Br)cc3)cc2)c1O [Compound 2b]" recorded_number=4.45
compound="CC(=NN=Cc1ccc(Br)cc1F)c1ccc(OCc2ccc(Br)cc2)cc1 [Compound 2c]" recorded_number=3.76

Where do these numbers come from? They come from paper PMC12188521.
